test system: E13 (patient-derived glioblastoma stem cells of classical subtype); assay: surviving fraction (nuclei count normalised to DMSO); higher = more cells surviving (less toxic); conditions: 1000 nM; exposure time: 72 h;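 further: nuclei counted by high-content imaging of Hoechst-stained cells in laminin-coated 384-well plates, relative to 0.1% DMSO vehicle wells, with staurosporine as cell-death control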
Structures can show the parent of a compound that is named as a salt.
QUANTITY: surviving fraction

| COMPOUND | VALUE_OBSERVED |
| --- | --- |
| CC(C)(Oc1ccc(C2CC2(Cl)Cl)cc1)C(=O)O (stereo not given) [Ciprofibrate] | 1.13 |
| CCN(CC)CCCC(C)Nc1c2ccc(Cl)cc2nc2ccc(OC)cc12 (stereo not given) [Quinacrine dihydrochloride hydrate] | 0.911 |
| COc1cc([C@@H]2c3cc4c(cc3[C@@H](O[C@@H]3O[C@@H]5CO[C@@H](C)O[C@H]5[C@H](O)[C@H]3O)[C@H]3COC(=O)[C@H]23)OCO4)cc(OC)c1O [Etoposide] | 0.473 |
| CCN(CC)Cc1ccc(C(=O)N(CCc2ccccc2OC)[C@@H]2CCNC2)cc1 | 0.865 |
| CCC(=O)OCC(=O)[C@@]1(OC(=O)CC)[C@H](C)C[C@H]2[C@H]3[C@H]([C@@H](O)C[C@@]21C)[C@@]1(C)C=CC(=O)C=C1C[C@H]3Cl [Alclometasone dipropionate] | 0.974 |
| Cc1ccc2c(c1)C1(CCN(CCc3nc(-c4ccccc4)oc3C)CC1)OC(=O)N2 | 1.11 |
| CC1CNc2c(cccc2S(=O)(=O)N[C@@H](CCCNC(=N)N)C(=O)N2CC[C@@H](C)C[C@@H]2C(=O)O)C1 (stereo not given in full) | 0.955 |
| Clc1ccc(CSC(Cn2ccnc2)c2ccc(Cl)cc2Cl)cc1 (stereo not given) [Sulconazole nitrate] | 0.82 |
| O=C(Nc1ccc([N+](=O)[O-])cc1Cl)c1cc(Cl)ccc1O [Niclosamide] | 0.132 |
| CC(C)C[C@H](NC(=O)CNC(=O)c1cc(Cl)ccc1Cl)B1OC(=O)C(CC(=O)O)(CC(=O)O)O1 | 0.00607 |
| COc1cc(/C=C/C(=O)N2CCC=CC2=O)cc(OC)c1OC | 0.88 |
| Cc1cc(CN2CCN(c3c(Br)cnc4nc(-c5ccc(N6CCN(C)CC6)cc5)[nH]c34)CC2)no1 | 0.528 |
| COc1ccc2c(c1)CC[C@@H]1[C@@H]2CC[C@]2(C)[C@@H](NCCCCCCN3C(=O)CCC3=O)CC[C@@H]12 | 0.804 |
| COC(=O)C[C@](O)(CCCC(C)(C)O)C(=O)O[C@@H]1C(OC)=C[C@]23CCCN2CCc2cc4c(cc2[C@H]13)OCO4 | 0.239 |
| C=C(C)[C@H]1Cc2c(ccc3c2O[C@@H]2COc4cc(OC)c(OC)cc4[C@@H]2C3=O)O1 | 0.566 |
| CC(=O)O[C@H]1C[C@H](O[C@H]2[C@@H](O)C[C@H](O[C@H]3[C@@H](O)C[C@H](O[C@H]4CC[C@@]5(C)[C@H](CC[C@@H]6[C@@H]5C[C@@H](O)[C@]5(C)[C@@H](C7=CC(=O)OC7)CC[C@]65O)C4)O[C@@H]3C)O[C@@H]2C)O[C@H](C)[C@H]1O[C@@H]1O[C@H](CO)[C@@H](O)[C@H](O)[C@H]1O [Lanatoside C] | 0.273 |
| O=[N+]([O-])c1ccc2c(c1)S(=O)(=O)C=C2 | 0.0609 |
| NC(=O)c1cccc2cn(-c3ccc([C@@H]4CCCNC4)cc3)nc12 | 0.966 |
| COC(=O)Nc1nc2cc(C(=O)c3ccccc3)ccc2[nH]1 | 0.203 |
| CC(=O)[C@]1(O)Cc2c(O)c3c(c(O)c2[C@@H](O[C@H]2C[C@H](N)[C@H](O)[C@H](C)O2)C1)C(=O)c1ccccc1C3=O | 0.0911 |
| CCCCC1C(=O)N(c2ccccc2)N(c2ccc(O)cc2)C1=O (stereo not given) | 1.04 |
| Cc1cc(/C=C/c2ccc3cc(N(C)C)ccc3[n+]2C)c(C)n1-c1ccccc1 [Pyrvinium pamoate] | 0.264 |
| CCn1cc(C(=O)O)c(=O)c2cc(F)c(N3CCNCC3)nc21 | 0.96 |
| O=C1CCc2cc(OCCCCc3nnnn3C3CCCCC3)ccc2N1 | 0.98 |
| CCN1CCN(C(=O)Cc2ccc(Nc3ncc(F)c(Nc4ccc(C(=O)Nc5ccccc5Cl)cc4)n3)cc2)CC1 | 0.643 |
| CCC(C)(C)c1ccc(CC(C)CN2C[C@@H](C)O[C@@H](C)C2)cc1 (stereo not given in full) [Amorolfine hydrochloride] | 0.957 |
| NC1CCN(c2nc3c(cc2F)c(=O)c(C(=O)O)cn3-c2ccc(F)cc2F)C1 (stereo not given) [Tosufloxacin hydrochloride] | 1 |
| COc1cc(N)c(Cl)cc1C(=O)NC1CCN(CCCOc2ccc(F)cc2)CC1OC (stereo not given) [Cisapride] | 0.958 |
| CN1C(=O)OC(C)(C)C1=O | 1.07 |
| COc1cc2c(cc1-c1c(C)noc1C)ncc1[nH]c(=O)n([C@H](C)c3ccccn3)c12 | 0.562 |

Just for reference, the supplement of paper PMC13207355 is where these values come from.
